- assayed_target: Muscarinic acetylcholine receptor M2 (Homo sapiens); further: assay procedure not described here
- Sequence (P08172 whole entry): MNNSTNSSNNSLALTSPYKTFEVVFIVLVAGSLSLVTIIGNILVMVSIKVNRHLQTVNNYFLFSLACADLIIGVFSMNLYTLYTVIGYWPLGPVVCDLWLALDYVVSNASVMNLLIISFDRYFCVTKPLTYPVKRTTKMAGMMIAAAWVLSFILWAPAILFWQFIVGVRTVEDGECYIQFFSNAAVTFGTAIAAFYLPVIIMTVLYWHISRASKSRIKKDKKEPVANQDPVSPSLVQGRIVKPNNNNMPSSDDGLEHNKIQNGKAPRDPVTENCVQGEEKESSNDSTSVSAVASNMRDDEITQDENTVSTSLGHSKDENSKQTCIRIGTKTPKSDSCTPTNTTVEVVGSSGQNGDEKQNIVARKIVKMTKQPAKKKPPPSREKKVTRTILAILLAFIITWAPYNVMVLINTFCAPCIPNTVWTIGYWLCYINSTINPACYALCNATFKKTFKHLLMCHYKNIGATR
observable: AC50

Below are worked cases with known answers.
{"compound": "NC(=O)NCCC[C@H](N)C(=O)O", "AC50": "> 30 µM"}
{"compound": "C1CNCCN1", "AC50": "> 30 µM"}
{"compound": "CO[C@H]1/C=C/O[C@@]2(C)Oc3c(C)c(O)c4c(O)c(cc(O)c4c3C2=O)NC(=O)/C(C)=C\\C=C\\[C@H](C)[C@H](O)[C@@H](C)[C@@H](O)[C@@H](C)[C@H](OC(C)=O)[C@@H]1C", "AC50": "> 30 µM"}
{"compound": "O=C(Oc1ccccc1C(=O)O)c1ccccc1O [SALSALATE]", "AC50": "> 30 µM"}
{"compound": "COc1cc([C@@H]2c3cc4c(cc3[C@@H](O[C@@H]3O[C@@H]5CO[C@@H](c6cccs6)O[C@H]5[C@H](O)[C@H]3O)[C@H]3COC(=O)[C@H]23)OCO4)cc(OC)c1O [TENIPOSIDE]", "AC50": "> 30 µM"}

Query: Item CCC(=O)O[C@@H](O[P@](=O)(CCCCc1ccccc1)CC(=O)N1C[C@H](C2CCCCC2)C[C@H]1C(=O)O)C(C)C with Muscarinic acetylcholine receptor M2 (Homo sapiens) - AC50?
Result: > 30 µM

Query: How about CCCCCCCCNC(C)C(O)c1ccc(SC(C)C)cc1 (centres undefined) ?
Result: 3.41 µM

Query: How about O=P(O)(O)C(Cl)(Cl)P(=O)(O)O ?
Result: > 30 µM

Query: How about CCCCC/C=C\C/C=C\C/C=C\CCCCC(=O)O ?
Result: > 30 µM

Query: How about C[C@H]1O[C@@H](O[C@H]2[C@@H](O)C[C@H](O[C@H]3[C@@H](O)C[C@H](O[C@H]4CC[C@@]5(C)[C@H](CC[C@@H]6[C@@H]5CC[C@]5(C)[C@@H](C7=CC(=O)OC7)CC[C@]65O)C4)O[C@@H]3C)O[C@@H]2C)C[C@H](O)[C@@H]1O ?
Result: > 30 µM

Query: How about CNC[C@H](O)c1cccc(O)c1 ?
Result: > 30 µM

Query: How about CN(CC(=O)O)C(=N)N ?
Result: > 30 µM

Query: How about CC(C)(N)C(=O)N[C@H](Cc1c[nH]c2ccccc12)C(=O)N[C@H](Cc1c[nH]c2ccccc12)NC=O ?
Result: > 30 µM

Query: How about CO[C@H]1[C@@H](O)C[C@H](O[C@H]2[C@@H](O)C[C@H](O[C@H]3[C@@H](O)C[C@H](O[C@H]4CC[C@@]5(C)[C@H](CC[C@@H]6[C@@H]5C[C@@H](O)[C@]5(C)[C@@H](C7=CC(=O)OC7)CC[C@]65O)C4)O[C@@H]3C)O[C@@H]2C)O[C@@H]1C ?
Result: > 30 µM

---

Observed AC50, system UniProt:P21731.
Sequence (P21731 whole entry): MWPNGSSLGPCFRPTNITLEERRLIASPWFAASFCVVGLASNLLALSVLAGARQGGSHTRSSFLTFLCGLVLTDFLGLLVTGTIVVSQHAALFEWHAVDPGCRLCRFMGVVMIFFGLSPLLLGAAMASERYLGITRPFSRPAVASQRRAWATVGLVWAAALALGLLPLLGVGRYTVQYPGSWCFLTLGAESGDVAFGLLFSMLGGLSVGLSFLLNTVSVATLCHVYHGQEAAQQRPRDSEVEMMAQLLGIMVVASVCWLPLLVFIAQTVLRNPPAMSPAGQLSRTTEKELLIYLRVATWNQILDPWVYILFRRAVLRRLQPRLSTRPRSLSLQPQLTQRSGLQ

Below are worked cases with known answers.
{"compound": "NS(=O)(=O)c1cc2c(cc1C(F)(F)F)NC(Cc1ccccc1)NS2(=O)=O (stereo not drawn) [BENDROFLUMETHIAZIDE]", "AC50": "> 10 µM"}
{"compound": "O=c1oc2ccccc2c(O)c1Cc1c(O)c2ccccc2oc1=O [DICUMAROL]", "AC50": "> 10 µM"}
{"compound": "CC(=O)OCC(=O)[C@@]1(O)CC[C@H]2[C@@H]3CCC4=CC(=O)CC[C@]4(C)C3=CC[C@@]21C [ANECORTAVE ACETATE]", "AC50": "> 10 µM"}
{"compound": "CC1(C)C(C=C(Cl)Cl)C1C(=O)OCc1cccc(Oc2ccccc2)c1 (stereo not drawn) [PERMETHRIN]", "AC50": "> 10 µM"}
{"compound": "O=C(Nc1nc(-c2cc(Cl)cs2)c(N2CCN(C3CCCCC3)CC2)s1)c1cnc(N2CCC(C(=O)O)CC2)c(Cl)c1 [AVATROMBOPAG]", "AC50": "> 10 µM"}

Query: Look up AC50: Clc1ccc2c(c1)C(c1ccccc1)=NCc1nncn1-2 [ESTAZOLAM]
Result: > 30 µM

Query: How about CCc1oc2ccccc2c1C(=O)c1cc(Br)c(O)c(Br)c1 [BENZBROMARONE] ?
Result: 29 µM

Query: How about CCn1cc(C(=O)O)c(=O)c2cc(F)c(N3CCNCC3)nc21 [ENOXACIN] ?
Result: 6.06 µM

Query: How about N=C(N)NCCCCCCC(=O)NC(O)C(=O)NCCCCNCCCN (stereo not drawn) ?
Result: > 30 µM

Query: How about COC1=C(OC)C(=O)C(CCCCCCCCCCO)=C(C)C1=O [IDEBENONE] ?
Result: 31.2 µM

Query: How about C[C@H]1C[C@H]2[C@@H]3CCC4=CC(=O)C=C[C@]4(C)[C@@]3(Cl)[C@@H](O)C[C@]2(C)[C@@]1(O)C(=O)CO [BECLOMETHASONE] ?
Result: > 30 µM

---

Entries annotated with measured AC50
- assayed_target: UniProtKB P08908
- Sequence (P08908 whole entry): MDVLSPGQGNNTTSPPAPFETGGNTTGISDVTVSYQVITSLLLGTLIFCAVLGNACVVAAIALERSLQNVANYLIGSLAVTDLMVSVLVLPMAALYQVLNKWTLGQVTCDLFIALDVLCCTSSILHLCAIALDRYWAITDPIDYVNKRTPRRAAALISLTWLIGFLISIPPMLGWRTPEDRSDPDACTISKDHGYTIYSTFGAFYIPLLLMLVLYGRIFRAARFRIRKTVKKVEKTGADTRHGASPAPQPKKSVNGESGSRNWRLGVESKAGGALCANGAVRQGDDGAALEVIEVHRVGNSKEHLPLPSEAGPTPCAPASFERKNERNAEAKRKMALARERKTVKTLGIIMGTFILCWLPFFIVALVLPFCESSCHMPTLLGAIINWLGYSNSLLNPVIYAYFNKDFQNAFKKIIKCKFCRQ

Query: Item CC(C1=C(CCN(C)C)Cc2ccccc21)c1ccccn1 (stereo not drawn) with UniProtKB P08908 - AC50?
Result: 8.78 µM

Query: How about CCOC(=O)c1ccc(OC(=O)CCCCCNC(=N)N)cc1 [GABEXATE] ?
Result: > 30 µM

Query: How about Nc1nc(N)nc(Nc2ccc([As]3SCC(CO)S3)cc2)n1 (stereo not drawn) [MELARSOPROL] ?
Result: > 30 µM

Query: How about O=C(Nc1cccc2c(=O)cc(-c3nnn[nH]3)oc12)c1ccc(OCCCCc2ccccc2)cc1 ?
Result: 4.1 µM

Query: How about O=C(NC(Cc1cc(=O)[nH]c2ccccc12)C(=O)O)c1ccc(Cl)cc1 (stereo not drawn) [REBAMIPIDE] ?
Result: > 30 µM

Query: How about CN(C)c1cc(CNCC(C)(C)C)c(O)c2c1C[C@H]1C[C@H]3[C@H](N(C)C)C(O)=C(C(N)=O)C(=O)[C@@]3(O)C(O)=C1C2=O [OMADACYCLINE] ?
Result: > 30 µM

Query: How about N[C@@H](CC(=O)O)C(=O)O [ASPARTIC ACID] ?
Result: > 30 µM

Query: How about COc1cc([C@@H]2c3cc4c(cc3[C@@H](O[C@@H]3O[C@@H]5CO[C@@H](c6cccs6)O[C@H]5[C@H](O)[C@H]3O)[C@H]3COC(=O)[C@H]23)OCO4)cc(OC)c1O [TENIPOSIDE] ?
Result: > 30 µM

---

Observed AC50, system Sodium-dependent serotonin transporter (Homo sapiens, UniProt P31645). Further: assay procedure not described here.

Below are worked cases with known answers.
{"molecule": "C[C@H]1Oc2cc(cnc2N)-c2c(nn(C)c2C#N)CN(C)C(=O)c2ccc(F)cc21", "assayed_target": "Sodium-dependent serotonin transporter (Homo sapiens, UniProt P31645)", "AC50": "> 30 µM"}
{"molecule": "O=C(O)c1ccccc1Nc1cccc(C(F)(F)F)c1", "assayed_target": "Sodium-dependent serotonin transporter (Homo sapiens, UniProt P31645)", "AC50": "> 30 µM"}
{"molecule": "Cc1ccc(=O)n(-c2ccccc2)c1", "assayed_target": "Sodium-dependent serotonin transporter (Homo sapiens, UniProt P31645)", "AC50": "> 30 µM"}
{"molecule": "CCOC(=O)Nc1ccc2c(c1)N(C(=O)CCN1CCOCC1)c1ccccc1S2", "assayed_target": "Sodium-dependent serotonin transporter (Homo sapiens, UniProt P31645)", "AC50": "> 30 µM"}
{"molecule": "CC#CCn1c(N2CCC[C@@H](N)C2)nc2c1c(=O)n(Cc1nc(C)c3ccccc3n1)c(=O)n2C", "assayed_target": "Sodium-dependent serotonin transporter (Homo sapiens, UniProt P31645)", "AC50": "> 30 µM"}
{"molecule": "O=C(Nc1c(Cl)cncc1Cl)c1ccc(OC(F)F)c(OCC2CC2)c1", "assayed_target": "Sodium-dependent serotonin transporter (Homo sapiens, UniProt P31645)", "AC50": "> 30 µM"}
{"molecule": "Cc1ccc(NC(=O)C2(c3ccc4c(c3)OC(F)(F)O4)CC2)nc1-c1cccc(C(=O)O)c1", "assayed_target": "Sodium-dependent serotonin transporter (Homo sapiens, UniProt P31645)", "AC50": "> 30 µM"}
{"molecule": "CCCC(C)(COC(N)=O)COC(=O)NC(C)C (stereo not given)", "assayed_target": "Sodium-dependent serotonin transporter (Homo sapiens, UniProt P31645)", "AC50": "> 10 µM"}

Query: Look up AC50: CC(C)=CCOc1ccc(/C=C/C(=O)c2ccc(OCC=C(C)C)cc2OCC(=O)O)cc1
Result: > 30 µM

Query: How about CCCC[C@H](C)C[C@H](O)/C=C/[C@H]1[C@H](O)CC(=O)[C@@H]1CCCC/C=C/C(=O)O ?
Result: > 30 µM

Query: How about C[C@]12CC[C@H](O)CC1=CC[C@@H]1[C@@H]2CC[C@]2(C)C(c3cccnc3)=CC[C@@H]12 ?
Result: > 30 µM

Query: How about COc1cccc(N(C)C(=S)Oc2ccc3c(c2)CCCC3)n1 [LIRANAFTATE] ?
Result: > 30 µM

Query: How about N#C[C@@H]1CCCN1C(=O)CNC12CC3CC(CC(O)(C3)C1)C2 ?
Result: > 30 µM
